Where a SMILES comes first, the peptide text is derived from it.
Endpoint Label: AC50

Lookup: Give AC50 for this entry on Estrogen receptor (Homo sapiens): CCOC(=O)[C@H](CCc1ccccc1)N[C@@H](C)C(=O)N1Cc2ccccc2C[C@H]1C(=O)O
Sequence (P03372 whole entry): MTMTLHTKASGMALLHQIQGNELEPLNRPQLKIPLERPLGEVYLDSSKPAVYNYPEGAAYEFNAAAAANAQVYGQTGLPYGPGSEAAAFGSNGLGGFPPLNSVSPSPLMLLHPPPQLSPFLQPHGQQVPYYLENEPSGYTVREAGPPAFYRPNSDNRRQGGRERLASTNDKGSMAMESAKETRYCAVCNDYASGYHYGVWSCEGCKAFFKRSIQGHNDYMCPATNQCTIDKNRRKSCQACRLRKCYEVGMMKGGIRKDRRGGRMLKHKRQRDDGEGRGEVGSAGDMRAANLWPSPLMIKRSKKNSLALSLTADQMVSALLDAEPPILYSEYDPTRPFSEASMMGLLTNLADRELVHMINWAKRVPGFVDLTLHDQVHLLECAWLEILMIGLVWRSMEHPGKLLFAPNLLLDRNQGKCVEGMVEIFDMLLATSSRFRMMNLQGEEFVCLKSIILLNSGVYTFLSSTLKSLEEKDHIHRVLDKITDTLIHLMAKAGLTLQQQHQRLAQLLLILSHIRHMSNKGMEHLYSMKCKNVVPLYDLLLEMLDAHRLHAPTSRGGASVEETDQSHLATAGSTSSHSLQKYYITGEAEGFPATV
Found: > 30 µM

Lookup: Consider the compound C[C@H](Cn1cnc2c(N)ncnc21)OCP(=O)(O)O [TENOFOVIR ANHYDROUS] tested on Estrogen receptor (Homo sapiens); state its AC50. Further: assay procedure not described here.
Found: > 30 µM

Lookup: Send back Estrogen receptor (Homo sapiens) AC50 of Cc1nnc2n1-c1ccc(Cl)cc1C(c1ccccc1)=NC2 [ALPRAZOLAM] only.
Found: > 30 µM

Lookup: Jot down AC50 (Estrogen receptor (Homo sapiens)) of CN(C)CCOC(c1ccc(Cl)cc1)c1ccccn1 (centres undefined) [CARBINOXAMINE] .
Found: > 30 µM

Lookup: Quote AC50 with test system Estrogen receptor (Homo sapiens) for Cc1ccc(-c2ncc(Cl)cc2-c2ccc(S(C)(=O)=O)cc2)cn1 [ETORICOXIB]; further: assay procedure not described here
Found: > 30 µM

Lookup: Give AC50 for CC(C)/N=c1\cc2n(-c3ccc(Cl)cc3)c3ccccc3nc-2cc1Nc1ccc(Cl)cc1 [CLOFAZIMINE] tested on Estrogen receptor (Homo sapiens). Further: assay procedure not described here.
Found: 0.13 µM

Lookup: Jot down AC50 (Estrogen receptor (Homo sapiens)) of CCC(=O)O[C@H](CC(=O)O)C[N+](C)(C)C [LEVOCARNITINE PROPIONATE] .
Found: > 30 µM

Lookup: Determine reported AC50 for CCC1(CC)C(=O)NC(=O)N(C)C1=O [METHARBITAL] ; test system: Estrogen receptor (Homo sapiens). Further: assay procedure not described here.
Found: > 10 µM

Lookup: Look up and report AC50, with Estrogen receptor (Homo sapiens) as system, for OCC(O)COc1ccc(Cl)cc1 (centres undefined)
Found: > 10 µM

Lookup: Enter AC50 (test system Estrogen receptor (Homo sapiens)) for CN(C)CCC(O)(c1ccccc1)c1ccccc1Cl (centres undefined) [CHLOPHEDIANOL]; further: assay procedure not described here
Found: > 10 µM

Lookup: Fill: AC50 (Estrogen receptor (Homo sapiens)) for this compound CN(C)CCN(Cc1ccccc1)c1ccccn1 [TRIPELENNAMINE]
Found: > 10 µM

Lookup: Fetch value of AC50 on Estrogen receptor (Homo sapiens) for O=C(O)CCCC[C@@H]1SC[C@@H]2NC(=O)N[C@@H]21 [BIOTIN] .
Found: > 10 µM

Lookup: Param request: AC50 | system Estrogen receptor (Homo sapiens) | item O=C(C[S+]([O-])Cc1ccco1)NC/C=C\COc1cc(CN2CCCCC2)ccn1 (centres undefined) [LAFUTIDINE]; further: assay procedure not described here
Found: > 10 µM

Lookup: Look up and report measured AC50 (Estrogen receptor (Homo sapiens)) for the following compound: CCOC(=O)Nc1ccc(NCc2ccc(F)cc2)nc1N [FLUPIRTINE]
Found: 3 µM

Lookup: # return AC50 of CC(C(=O)O)c1ccc(C(=O)c2ccccc2)s1 (centres undefined) [TIAPROFENIC ACID] (system: Estrogen receptor (Homo sapiens)); further: assay procedure not described here
Found: > 10 µM

Lookup: Find AC50 for C[C@H](N)C(=O)N[C@@H](CCC(N)=O)C(=O)O [ALANYL GLUTAMINE] (H-Ala-Gln-OH) on Estrogen receptor (Homo sapiens) and write it down.
Found: > 30 µM

Lookup: Report value only: AC50, Estrogen receptor (Homo sapiens), CC1=C(/C=C/C(C)=C/C=C/C(C)=C/C(=O)Oc2c(C)c(C)c3c(c2C)CCC(C)(CCCC(C)CCCC(C)CCCC(C)C)O3)C(C)(C)CCC1 (centres undefined) [TRETINOIN TOCOFERIL]
Found: > 30 µM

Lookup: Give reported AC50 for C[C@@H](Cc1ccccc1)N(C)Cc1ccccc1 [BENZPHETAMINE] (Estrogen receptor (Homo sapiens))
Found: > 10 µM

Lookup: // fetch AC50 for CN(Cc1ccc(C(C)(C)C)cc1)Cc1cccc2ccccc12 [BUTENAFINE] ; system: Estrogen receptor (Homo sapiens); further: assay procedure not described here
Found: > 30 µM

* * *

Endpoint Label: AC50

Lookup: Give AC50; test system UniProtKB P08172; molecule CC#CC(=O)N1CCC[C@H]1c1nc(-c2ccc(C(=O)Nc3ccccn3)cc2)c2c(N)nccn12
Sequence (P08172 whole entry): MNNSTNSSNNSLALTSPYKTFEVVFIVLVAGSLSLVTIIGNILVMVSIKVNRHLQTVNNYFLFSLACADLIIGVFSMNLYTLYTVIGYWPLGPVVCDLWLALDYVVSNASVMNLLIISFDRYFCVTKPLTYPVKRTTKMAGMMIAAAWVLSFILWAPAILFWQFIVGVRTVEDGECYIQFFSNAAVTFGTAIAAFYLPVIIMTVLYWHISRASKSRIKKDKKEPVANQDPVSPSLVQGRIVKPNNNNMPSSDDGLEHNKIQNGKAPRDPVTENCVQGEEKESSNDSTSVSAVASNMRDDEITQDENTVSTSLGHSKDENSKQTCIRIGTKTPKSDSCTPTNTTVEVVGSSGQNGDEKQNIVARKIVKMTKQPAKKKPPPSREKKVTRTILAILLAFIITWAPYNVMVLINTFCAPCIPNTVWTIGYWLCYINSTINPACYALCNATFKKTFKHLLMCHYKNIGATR
Found: > 30 µM

Lookup: State the measured AC50 (UniProtKB P08172) of CC(=O)Oc1ccccc1C(=O)O
Found: > 30 µM

Lookup: # return AC50 for CN1CCCC(CC2c3ccccc3Sc3ccccc32)C1 (centres undefined) , test system: UniProtKB P08172
Found: 0.0053 µM

Lookup: // fetch AC50; item: NCC1(CC(=O)O)CCCCC1 ; system: UniProtKB P08172
Found: > 30 µM

* * *

I'd be grateful if you could share measured AC50 for these entries.

Lookup: Recall the reported AC50 of CC(C)CN(C[C@@H](O)[C@H](Cc1ccccc1)NC(=O)O[C@H]1CCOC1)S(=O)(=O)c1ccc(N)cc1 on Sodium-dependent dopamine transporter (Homo sapiens, UniProt Q01959) and write it down.
Sequence (Q01959 whole entry): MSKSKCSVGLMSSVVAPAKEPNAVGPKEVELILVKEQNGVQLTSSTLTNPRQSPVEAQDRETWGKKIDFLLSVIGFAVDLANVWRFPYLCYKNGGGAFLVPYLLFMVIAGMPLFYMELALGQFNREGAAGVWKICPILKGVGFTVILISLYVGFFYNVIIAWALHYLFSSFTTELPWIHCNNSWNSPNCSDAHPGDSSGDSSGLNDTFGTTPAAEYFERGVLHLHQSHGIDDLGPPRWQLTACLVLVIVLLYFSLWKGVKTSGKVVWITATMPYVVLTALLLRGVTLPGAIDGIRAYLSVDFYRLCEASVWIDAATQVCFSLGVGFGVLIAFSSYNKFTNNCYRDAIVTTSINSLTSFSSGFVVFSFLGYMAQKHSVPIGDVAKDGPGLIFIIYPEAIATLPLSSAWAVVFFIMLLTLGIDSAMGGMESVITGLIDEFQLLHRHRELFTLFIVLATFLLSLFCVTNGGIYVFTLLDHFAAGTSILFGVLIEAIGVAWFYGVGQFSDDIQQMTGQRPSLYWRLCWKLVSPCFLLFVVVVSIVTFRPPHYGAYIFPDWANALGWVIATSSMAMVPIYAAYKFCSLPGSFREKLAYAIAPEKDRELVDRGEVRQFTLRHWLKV
Found: > 10 µM

Lookup: GET AC50 where system = Sodium-dependent dopamine transporter (Homo sapiens, UniProt Q01959) and item = O=C(O)c1nn(Cc2ccc(Cl)cc2Cl)c2ccccc12 [LONIDAMINE]; further: assay procedure not described here
Found: > 30 µM

Lookup: Quote Sodium-dependent dopamine transporter (Homo sapiens, UniProt Q01959) AC50 for entry CN1C2CCCC1CC(NC(=O)c1nn(C)c3ccccc13)C2 (stereo not given) [GRANISETRON] .
Found: > 10 µM

Lookup: Give Sodium-dependent dopamine transporter (Homo sapiens, UniProt Q01959) AC50 for the following compound: NCCCNCCSP(=O)(O)O [AMIFOSTINE]
Found: > 30 µM

Lookup: Tell me its AC50 on Sodium-dependent dopamine transporter (Homo sapiens, UniProt Q01959): CC1=C(/C=C/C(C)=C/C=C/C(C)=C/C(=O)Oc2c(C)c(C)c3c(c2C)CCC(C)(CCCC(C)CCCC(C)CCCC(C)C)O3)C(C)(C)CCC1 (stereo not given) [TRETINOIN TOCOFERIL]
Found: > 30 µM

Lookup: Under Sodium-dependent dopamine transporter (Homo sapiens, UniProt Q01959), report AC50 for CCOC(=O)[C@H](CCc1ccccc1)N[C@@H](C)C(=O)N1Cc2ccccc2C[C@H]1C(=O)O
Found: > 10 µM

Lookup: Report measured AC50 on Sodium-dependent dopamine transporter (Homo sapiens, UniProt Q01959); entry: Nc1c2c(nc3ccccc13)CCCC2O (stereo not given) [VELNACRINE]
Found: > 30 µM

Lookup: Write AC50 of Cc1c(C)c2c(c(C)c1O)CCC(C)(COc1ccc(CC3SC(=O)NC3=O)cc1)O2 (stereo not given) [TROGLITAZONE] ; system used: Sodium-dependent dopamine transporter (Homo sapiens, UniProt Q01959); further: assay procedure not described here
Found: 23.7 µM

Lookup: Under Sodium-dependent dopamine transporter (Homo sapiens, UniProt Q01959): report AC50 of Nc1nnc(-c2cccc(Cl)c2Cl)c(N)n1 [LAMOTRIGINE] .
Found: > 10 µM

Lookup: Fill in: AC50 on Sodium-dependent dopamine transporter (Homo sapiens, UniProt Q01959), entry CN1CCC(=C2c3ccccc3CC(=O)c3sccc32)CC1 [KETOTIFEN]
Found: > 10 µM

Lookup: Would you please give the reported AC50 of C[C@H](CS)C(=O)N1CCC[C@H]1C(=O)O [CAPTOPRIL] with Sodium-dependent dopamine transporter (Homo sapiens, UniProt Q01959)?
Found: > 30 µM

Lookup: Report AC50 on Sodium-dependent dopamine transporter (Homo sapiens, UniProt Q01959) for this entry: CC1CC(OC(=O)C(O)c2ccccc2)CC(C)(C)C1 (stereo not given) [CYCLANDELATE]
Found: > 30 µM

Lookup: Please tell me the measured AC50 for CC(=O)SCC(Cc1ccccc1)C(=O)NCC(=O)OCc1ccccc1 (stereo not given) [RACECADOTRIL] ; system: Sodium-dependent dopamine transporter (Homo sapiens, UniProt Q01959). Further: assay procedure not described here.
Found: > 30 µM

Lookup: Consider the compound C[C@]12CCC(=O)C=C1CC[C@H]1[C@@H]3CC[C@](O)(C(=O)CO)[C@@]3(C)C[C@H](O)[C@@]12F [FLUDROCORTISONE] tested on Sodium-dependent dopamine transporter (Homo sapiens, UniProt Q01959); state its AC50. Further: assay procedure not described here.
Found: > 30 µM

Lookup: Write AC50 of CN1CC2c3ccccc3Oc3ccc(Cl)cc3C2C1 (stereo not given) [ASENAPINE] ; system used: Sodium-dependent dopamine transporter (Homo sapiens, UniProt Q01959); further: assay procedure not described here
Found: 11 µM

Lookup: Provide the reported AC50 (system: Sodium-dependent dopamine transporter (Homo sapiens, UniProt Q01959)) for CCC1(CC)C(=O)NC(=O)N(C)C1=O [METHARBITAL]; further: assay procedure not described here
Found: > 10 µM

Lookup: State recorded AC50 with Sodium-dependent dopamine transporter (Homo sapiens, UniProt Q01959), entry CC1Cc2ccccc2N1NC(=O)c1ccc(Cl)c(S(N)(=O)=O)c1 (stereo not given) [INDAPAMIDE] , no comment.
Found: > 30 µM

Lookup: Determine reported AC50 for Cc1ccc(S(=O)(=O)NC(=O)N[C@H]2[C@H]3CC[C@@](C)([C@H]2O)C3(C)C)cc1 [GLIBORNURIDE] ; test system: Sodium-dependent dopamine transporter (Homo sapiens, UniProt Q01959). Further: assay procedure not described here.
Found: > 30 µM

Lookup: Print Sodium-dependent dopamine transporter (Homo sapiens, UniProt Q01959) AC50 for CC1=C(CC(=O)O)c2cc(F)ccc2/C1=C\c1ccc([S+](C)[O-])cc1 (stereo not given) .
Found: > 30 µM

Lookup: Provide AC50, system Sodium-dependent dopamine transporter (Homo sapiens, UniProt Q01959), entry CC(=O)OCC(=O)[C@@]1(O)CC[C@H]2[C@@H]3CCC4=CC(=O)CC[C@]4(C)[C@@]3(F)[C@@H](O)C[C@@]21C [FLUDROCORTISONE ACETATE]; further: assay procedure not described here
Found: > 30 µM

Lookup: Answer briefly: AC50 recorded on Sodium-dependent dopamine transporter (Homo sapiens, UniProt Q01959) for c1cnc2cc3c(cc2n1)[C@@H]1CNC[C@H]3C1 [VARENICLINE]
Found: > 30 µM

Lookup: Quote AC50 with test system Sodium-dependent dopamine transporter (Homo sapiens, UniProt Q01959) for CC(C)(Oc1ccc(Cl)cc1)C(=O)OCCOC(=O)c1cccnc1 [ETOFIBRATE]; further: assay procedure not described here
Found: > 30 µM

Lookup: Send back Sodium-dependent dopamine transporter (Homo sapiens, UniProt Q01959) AC50 of CNC1(C)C2CCC(C2)C1(C)C (stereo not given) [MECAMYLAMINE] only.
Found: > 10 µM

Lookup: Specify AC50 for CCN(C(C)=O)c1cccc(-c2ccnc3c(C#N)cnn23)c1 [ZALEPLON] , system Sodium-dependent dopamine transporter (Homo sapiens, UniProt Q01959). Further: assay procedure not described here.
Found: > 30 µM

Lookup: Jot down AC50 (Sodium-dependent dopamine transporter (Homo sapiens, UniProt Q01959)) of Cc1cccc(Nc2ccncc2S(=O)(=O)NC(=O)NC(C)C)c1 [TORSEMIDE] .
Found: > 10 µM

Lookup: For Sodium-dependent dopamine transporter (Homo sapiens, UniProt Q01959), give the measured AC50 of the entry CCc1ccc(C(=O)C(C)CN2CCCCC2)cc1 (stereo not given) [EPERISONE]
Found: > 30 µM

Lookup: Please tell me the measured AC50 for CNCCc1ccccn1 [BETAHISTINE] ; system: Sodium-dependent dopamine transporter (Homo sapiens, UniProt Q01959). Further: assay procedure not described here.
Found: > 30 µM

Lookup: Report AC50 from Sodium-dependent dopamine transporter (Homo sapiens, UniProt Q01959) testing of Nc1cc(N2CCCCC2)nc(N)[n+]1[O-] [MINOXIDIL]
Found: > 30 µM

Lookup: Enter recorded AC50 with Sodium-dependent dopamine transporter (Homo sapiens, UniProt Q01959) for CCN(CCO)CCCC(C)Nc1ccnc2cc(Cl)ccc12 (stereo not given) [HYDROXYCHLOROQUINE] here.
Found: > 10 µM

Lookup: Under Sodium-dependent dopamine transporter (Homo sapiens, UniProt Q01959): report AC50 of CCCCCCCC(=O)CC[C@@H]1[C@@H](C/C=C\CCCC(=O)O)[C@@H](O)C[C@H]1O [UNOPROSTONE] .
Found: > 30 µM

Lookup: Return reported AC50 for target or system Sodium-dependent dopamine transporter (Homo sapiens, UniProt Q01959), item COC(=O)CCc1ccc(OCC(O)CNC(C)C)cc1 (stereo not given) [ESMOLOL] . Further: assay procedure not described here.
Found: > 30 µM

Lookup: Answer briefly: AC50 recorded on Sodium-dependent dopamine transporter (Homo sapiens, UniProt Q01959) for O=C(O)CCCC[C@@H]1SC[C@@H]2NC(=O)N[C@@H]21 [BIOTIN]
Found: > 10 µM

Lookup: Supply AC50 measured with Sodium-dependent dopamine transporter (Homo sapiens, UniProt Q01959) for C[C@H](Cn1cnc2c(N)ncnc21)OCP(=O)(O)O [TENOFOVIR ANHYDROUS] .
Found: > 30 µM

Lookup: Give AC50 for CN(C)CCC=C1c2ccccc2CCc2ccccc21 [AMITRIPTYLINE] tested on Sodium-dependent dopamine transporter (Homo sapiens, UniProt Q01959). Further: assay procedure not described here.
Found: 13.8 µM

Lookup: State AC50 (Sodium-dependent dopamine transporter (Homo sapiens, UniProt Q01959)) of O=c1[nH]cc(F)c(=O)[nH]1 [FLUOROURACIL] .
Found: > 30 µM
